Kindly supply the reported logP values for the records listed here.
- PROTOCOL CONDITIONS: octanol/water

# annotated cases, reported logP shown
Documented logP of Clc1ccc(-c2c(Cl)cc(Cl)c(Cl)c2Cl)c(Cl)c1Cl : 6.99

Documented logP of Clc1cc(Cl)c(-c2cc(Cl)c(Cl)cc2Cl)cc1Cl [2,2',4,4',5,5'-HEXACHLOROBIPHENYL] : 6.8

Documented logP of Clc1cc(-c2cc(Cl)c(Cl)c(Cl)c2)cc(Cl)c1Cl : 7.55

Documented logP of Clc1ccc(Cl)c(-c2cc(Cl)c(Cl)cc2Cl)c1 : 6.49

Items follow; give logP for each.
1. Clc1ccc(Cl)c(-c2ccccc2Cl)c1
2. Clc1c(Cl)c(Cl)c(-c2ccccc2)c(Cl)c1Cl
3. Clc1ccc(-c2ccc(Cl)cc2)cc1
4. Clc1ccccc1-c1ccccc1Cl
5. Clc1cc(Cl)c(Cl)c(-c2c(Cl)c(Cl)cc(Cl)c2Cl)c1Cl

1. 5.6
2. 6.52
3. 5.58
4. 4.73
5. 7.15
